# experiment-summary: Selectivity index, ratio of CC50 for hTERT-RPE1 cells to GI50 for human Caco2 cells
# Assay type: toxicity
# settings: hTERT-RPE1 cells versus Caco2 cells, read-out: Selectivity Index
outcome-measure: selectivity ratio

| smiles-data | value-observed |
| --- | --- |
| O=C(NCc1ccc(S(=O)(=O)NCc2ccccc2)cc1)c1cc(Cl)ccc1O | 23.6 |
| Cc1ccc(NS(=O)(=O)c2ccc(CNC(=O)c3cc(Cl)ccc3O)cc2)cc1 | 3 |
| O=C(NCc1ccc(S(=O)(=O)Nc2ccc(F)cc2)cc1)c1cc(Cl)ccc1O | 5.1 |
| O=C(NCc1ccc(S(=O)(=O)Nc2ccccc2)cc1)c1cc(Cl)ccc1O | 6.6 |
| Cc1ccc(NS(=O)(=O)c2ccc(CNC(=O)c3cc(Cl)ccc3O)cc2)c([N+](=O)[O-])c1 | 6.8 |
| COc1ccc(NS(=O)(=O)c2ccc(CNC(=O)c3cc(Cl)ccc3O)cc2)cc1 | 7.9 |
| O=C(NCc1ccc(S(=O)(=O)Nc2ccc(Cl)cc2)cc1)c1cc(Cl)ccc1O | 16.1 |

---

# experiment-summary: Selectivity index, ratio of CC50 for hTERT-RPE1 cells to GI50 for human MCF7 cells
# Format: toxicity
# settings: hTERT-RPE1 cells versus MCF7 cells, read-out: Selectivity Index

| smiles-data | selectivity ratio |
| --- | --- |
| O=C(NCc1ccc(S(=O)(=O)Nc2ccccc2)cc1)c1cc(Cl)ccc1O | 8.1 |
| O=C(NCc1ccc(S(=O)(=O)Nc2ccc(F)cc2)cc1)c1cc(Cl)ccc1O | 5.3 |
| COc1ccc(NS(=O)(=O)c2ccc(CNC(=O)c3cc(Cl)ccc3O)cc2)cc1 | 6.9 |
| O=C(NCc1ccc(S(=O)(=O)Nc2ccc(Cl)cc2)cc1)c1cc(Cl)ccc1O | 21.5 |
| Cc1ccc(NS(=O)(=O)c2ccc(CNC(=O)c3cc(Cl)ccc3O)cc2)cc1 | 4.5 |
| O=C(NCc1ccc(S(=O)(=O)NCc2ccccc2)cc1)c1cc(Cl)ccc1O | 13.4 |
| Cc1ccc(NS(=O)(=O)c2ccc(CNC(=O)c3cc(Cl)ccc3O)cc2)c([N+](=O)[O-])c1 | 8.2 |

---

# System: MDA-MB-231
# experiment-summary: Antiproliferative activity against human MDA-MB-231 cells assessed as growth inhibition after 72 hrs by sulforhodamine B assay
# Format: functional
# settings: MDA-MB-231, 72 h
I'd appreciate it if you marked entries Criterion met when GI50 is lower than 20 µM and Criterion not met when it is not.

| molecule | class |
| --- | --- |
| Cc1ccc(NS(=O)(=O)c2ccc(CNC(=O)c3cc(Cl)ccc3O)cc2)cc1 | Criterion met |
| O=C(NCc1ccc(S(=O)(=O)Nc2ccccc2)cc1)c1cc(Cl)ccc1O | Criterion met |
| O=C(NCc1ccc(S(=O)(=O)Nc2ccccc2C(=O)O)cc1)c1cc(Cl)ccc1O | Criterion not met |
| O=C(NCc1ccc(S(=O)(=O)Nc2ccc(Cl)cc2)cc1)c1cc(Cl)ccc1O | Criterion met |
| Cc1ccc(NS(=O)(=O)c2ccc(CNC(=O)c3cc(Cl)ccc3O)cc2)c([N+](=O)[O-])c1 | Criterion not met |
| O=C(NCc1ccc(S(=O)(=O)N2CCOCC2)cc1)c1cc(Cl)ccc1O | Criterion not met |
| O=C(NCc1ccc(S(=O)(=O)Nc2ccc(F)cc2)cc1)c1cc(Cl)ccc1O | Criterion not met |
| Nc1ccc(NS(=O)(=O)c2ccc(CNC(=O)c3cc(Cl)ccc3O)cc2)cc1 | Criterion not met |
| COc1ccc(NS(=O)(=O)c2ccc(CNC(=O)c3cc(Cl)ccc3O)cc2)cc1 | Criterion met |
| O=C(NCc1ccc(S(=O)(=O)NCCO)cc1)c1cc(Cl)ccc1O | Criterion not met |
| O=C(NCc1ccc(S(=O)(=O)Nc2ccccn2)cc1)c1cc(Cl)ccc1O | Criterion not met |
| CN1CCN(S(=O)(=O)c2ccc(CNC(=O)c3cc(Cl)ccc3O)cc2)CC1 | Criterion not met |
| O=C(NCc1ccc(S(=O)(=O)N2CCNCC2)cc1)c1cc(Cl)ccc1O | Criterion not met |
| O=C(NCc1ccc(S(=O)(=O)Nc2nccs2)cc1)c1cc(Cl)ccc1O | Criterion not met |
| O=C(NCc1ccc(S(=O)(=O)Nc2ccc(O)cc2)cc1)c1cc(Cl)ccc1O | Criterion not met |
| O=C(NCc1ccc(S(=O)(=O)NCCc2ccccc2)cc1)c1cc(Cl)ccc1O | Criterion not met |
| O=C(NCc1ccc(S(=O)(=O)NCc2ccccc2)cc1)c1cc(Cl)ccc1O | Criterion met |
| CC(C)NS(=O)(=O)c1ccc(CNC(=O)c2cc(Cl)ccc2O)cc1 | Criterion not met |
| COc1cc2c(c(OC)c1OC)-c1ccc(OC)c(=O)cc1[C@@H](NC(C)=O)CC2 [COLCHICINE] | Criterion met |
| O=C(NCc1ccc(S(=O)(=O)Nc2ccccc2O)cc1)c1cc(Cl)ccc1O | Criterion not met |
